- measurement_target: Protein Tat (Human immunodeficiency virus type 1 group M subtype B (isolate HXB2)) (UniProt P04608)
- Sequence (P04608 whole entry, looked up): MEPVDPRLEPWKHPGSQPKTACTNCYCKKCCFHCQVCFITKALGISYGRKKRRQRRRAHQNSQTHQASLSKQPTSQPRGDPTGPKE
- assay_notes: inhibitors of Tat binding to TAR RNA, dose response, counter-screen for Vif-APOBEC3G degradation inhibitor project, biochemical, fluorescence polarization, FAM-labeled TAR RNA (AID 1117361)
pIC50: −log10 of the molar value.
Below is a list of entries, each paired with its recorded pIC50 value.
property_name: pIC50

>>> df
                                    compound  assay_result
 0  O=C(O)C1Nc2c(C(=O)N3CCOCC3)cccc2C2C=CCC12 (stereo not drawn)          5.05
 1  CC1(CCl)N([O-])C2=C(CCCC2)[N+]1=O (stereo not drawn)          4.35
 2              C(=C\c1ccco1)/c1ccc2ccccc2n1          5.03
 3  Cc1cc(C)c(S(=O)(=O)N2CCCCC2)c(C)c1N(C)S(=O)(=O)c1ccc(Cl)cc1          4.54
 4  COc1cc(OC)c2c(c1O)OC(c1ccccc1)CC2=O (stereo not drawn)          4.18
 5  CCN1CCN(c2cc(N3CCN(C(=O)c4ccco4)CC3)c3c4c(onc24)-c2ccccc2C3=O)CC1          5.24
 6  COC(=O)C1=C(C)N(Cc2ccccc2)C(=O)/C1=C\c1ccco1          4.10
 7  O=S(=O)(O)c1cc(O)c(N=Nc2ccc(O)cc2O)c2ccccc12          4.29
 8  Cc1onc(-c2c(F)cccc2Cl)c1C(=O)Nc1nnc(C2CC2)s1          4.22
 9        O=C(O)/C(=C/c1ccco1)NC(=O)c1ccccc1          4.81
10   O=C1NC(=S)N(c2ccccc2)C(=O)/C1=C/c1ccco1          4.79
11            O=C(/C=C/c1cccs1)Nc1ccc(Br)cn1          4.50
12  CN(C)C(CNC(=O)c1cccnc1Sc1ccccc1)c1ccco1 (stereo not drawn)          4.16

* * *

Readings of IC50 for the listed molecules
- measurement_target: Protein Tat (Human immunodeficiency virus type 1 group M subtype B (isolate HXB2))
- assay_notes: inhibitors of Tat binding to TAR RNA, dose response, counter-screen for Vif-APOBEC3G degradation inhibitor project, biochemical, fluorescence polarization, FAM-labeled TAR RNA (AID 1117361)
property_name: IC50

molecule	assay_result
O=C1NC(=S)S/C1=C\c1ccc(SCc2ccco2)o1	0.926 µM
Cc1cc(C(=O)O)ccc1-n1c(C)ccc1C	5.78 µM
Cc1ccc(S(=O)(=O)N2CCC(C(=O)Nc3nnc(-c4ccco4)s3)CC2)cc1	51.1 µM
CC(=O)c1ccc(NC(=O)CSc2nnc(-c3ccco3)c(-c3ccco3)n2)cc1	6.61 µM
Cc1c(C(=O)O)cccc1-n1c(C)cc(/C=N/Nc2ccc([N+](=O)[O-])cn2)c1C	64 µM
Cc1ccc(-n2c(-c3cc(-c4ccco4)[nH]n3)n[nH]c2=S)c(Br)c1	6.09 µM
CCOC(=O)CSc1nncc2ccc(OC)c(OC)c12	56.6 µM
CO[C@H]1C=CO[C@@]2(C)Oc3c(C)c(O)c4c(O)c(c(C=NN5CCN(C)CC5)c(O)c4c3C2=O)NC(=O)C(C)=CC=C[C@H](C)[C@H](O)[C@@H](C)[C@@H](O)[C@@H](C)[C@H](OC(C)=O)[C@@H]1C	11.2 µM
Cc1cnnc2ccc3c(no[n+]3[O-])c12	36.5 µM
O=C(Nc1ccccc1)C1=C(O)CC(c2ccco2)CC1=Nc1ccccc1 (stereo not given)	70.3 µM

* * *

- measurement_target: Protein Tat (Human immunodeficiency virus type 1 group M subtype B (isolate HXB2)) (UniProt P04608)
- assay_notes: inhibitors of Tat binding to TAR RNA, dose response, counter-screen for Vif-APOBEC3G degradation inhibitor project, biochemical, fluorescence polarization, FAM-labeled TAR RNA (AID 1117361)
pIC50: −log10 of the molar value.

compound	pIC50
C=CCSC1=N/C(=C\C=C\c2ccco2)C(=O)S1	5.72
COc1cccc(-c2cn3nc4c(nc3n2)CCCC4)c1	4.00
O=C(Cc1ccccc1)NC(Nc1ccccc1)C(Cl)(Cl)Cl (configuration not stated)	4.06
Oc1ccc(N=Cc2sc3ccccc3c2Cl)cc1	4.21
Cc1ccc(NC(=O)CN(C)C(=O)c2cc(-c3ccco3)nc3ccccc23)cc1	4.16
O=C1CCCC(O)=C1N=Nc1cccc(C(=O)O)c1	4.86
O=[N+]([O-])c1cc(CN2CCOCC2)c2cccnc2c1O	4.80
C=CCN=c1scc(-c2ccco2)n1/N=C/c1ccc(O)c(O)c1O	4.45
O=C1/C(=C/C=C/c2ccco2)SC(=S)N1NS(=O)(=O)c1ccccc1	5.61
O=C1C=C(N2CC2)c2ccccc2C1=O	4.09
Cc1ccc(N2C(=O)/C(=C\c3ccco3)SC2=S)cc1	4.44
O=C1CC(c2ccco2)CC(O)=C1C=Nc1ccc(Br)cc1 (configuration not stated)	4.11
N#CC(C#N)=Cc1cccn1-c1ccc(C(=O)O)cc1	4.48
NS(=O)(=O)c1ccc(N=Nc2c[nH]c(=O)c(O)c2)cc1	5.02
Cc1cccc(NC(=O)CNC(=O)c2cccc(-n3cccc3)c2)c1C	4.20
O=C(NCC1CCCO1)c1cc(-c2ccco2)nc2ccccc12 (configuration not stated)	4.31
O=C1NC(c2cccc(Br)c2)=N/C1=C\c1ccco1	5.04
CCOC(=O)CNc1ccc2c(c1)OCO2	5.83
O=C(O)C1Nc2ccc(Br)cc2C2C=CCC12 (configuration not stated)	5.43
O=c1[nH]nc(CNc2ccc(O)cc2)c2ccccc12	4.47
CN1C(=O)/C(=C/c2ccco2)SC1=Nc1cccc(C(=O)O)c1	5.10
Cc1cccc(C)c1NC(=O)CSc1nnc(-c2ccco2)c(-c2ccco2)n1	5.19
COc1ccc2nc3ccccc3nc2c1N	4.09
CC1(C)Cc2nc3sc(C(=O)O)c(N)c3cc2CS1	4.55
Cc1cc(C)cc(NC(=O)CSc2nc3c(c(=O)n2C)SC(C)C3)c1 (configuration not stated)	4.24
CC(C)C(C(=O)O)N1C(=O)/C(=C/C=C/c2ccco2)SC1=S (configuration not stated)	5.85
Cc1cccc(/C=C(\C(=O)O)c2ccc(S(=O)(=O)N3CCCC3)s2)c1	4.01
O=[n+]1c2c(n([O-])c3cc(Cl)ccc31)CCCC2	4.37
CC1S/C(=N/N=C/c2ccco2)NC1=O (configuration not stated)	4.15
Cc1cc(C)nc(N/N=C/C2=C(N3CCOCC3)C(=C\c3ccc(Cl)cc3)/CC2)n1	4.14
CCC(c1nnnn1C(C)(C)CC)N(CCCO)Cc1cc2cc(C)cc(C)c2[nH]c1=O (configuration not stated)	5.73
O=C(O)CC(C(=O)O)N1C(=O)/C(=C/c2ccc(-c3nc4ccccc4s3)o2)SC1=S (configuration not stated)	4.95
Cc1cc2c(N)cccc2nn1	5.68
CSc1nc(NCCOCCO)c2sc3nc(-c4ccco4)c4c(c3c2n1)CCC4	5.03
COc1ccccc1-n1c(-c2cc(-c3ccco3)[nH]n2)n[nH]c1=S	5.27
N#Cc1c(N)sc(=S)c2c1CCCCC2	5.73
CCOC(=O)C1=C(N)n2c(s/c(=C\c3ccco3)c2=O)=C(C(=O)OCC)C1c1ccco1 (configuration not stated)	5.10
CCC(=O)NNc1ncnc2ccccc12	4.35
C=CCn1c(COc2ccc(F)cc2)nnc1SCC(=O)NC(=O)NCc1ccco1	4.03
COc1cc(-c2cccs2)cc(=O)c2c(C)oc(C)c12	4.64
O=C(O)C[C@@H]1C(=O)O[C@@H]2C(COC(=O)c3cc(O)c(O)c(O)c3)O[C@@H](OC(=O)c3cc(O)c(O)c(O)c3)[C@@H](OC(=O)c3cc(O)c(O)c4c3[C@H]1[C@H](O)C(=O)O4)[C@H]2OC(=O)c1cc(O)c(O)c(O)c1 (some centres not stated)	6.25
O=C(O)c1cc(N2N=C(C(F)(F)F)/C(=C/C=C/c3ccco3)C2=O)ccc1Cl	6.21

* * *

- measurement_target: Protein Tat (Human immunodeficiency virus type 1 group M subtype B (isolate HXB2)) (UniProt P04608)
- assay_notes: inhibitors of Tat binding to TAR RNA, dose response, counter-screen for Vif-APOBEC3G degradation inhibitor project, biochemical, fluorescence polarization, FAM-labeled TAR RNA (AID 1117361)

molecule	IC50
CN1CCc2c(sc3c2c(NCc2ccco2)nc2nnnn23)C1	79.8 µM
Cc1ccc(C)n1-c1cccc(C(=O)O)c1	2.07 µM
c1cn2cc(CSC3CCCCC3)nc2s1	63.8 µM
CN(CCc1ccccc1)C(=O)c1ccc(NC(=O)Cc2ccc(NC(=O)C3CCN(C(=O)CCc4ccccc4)CC3)cc2)cc1	44.3 µM
O=C(N/N=C/C=C\c1ccco1)c1cccnc1	3.91 µM
CC(C)N1CCC2(CC1)C(C#N)=C(N)NC(S)=C2C#N	47.6 µM
O=C(O)CCCCC1CCSS1 (stereo not drawn)	5.89 µM
O=C1NC(c2ccc(Br)cc2)=N/C1=C/c1ccco1	6.78 µM
O=C(Nc1ccc(Cl)cc1)Nc1ccc(N2CCC(C(F)(F)F)CC2)nc1	32.5 µM
COC(C(=O)C(O)C(C)O)C1Cc2cc3cc(OC4CC(OC5CC(O)C(O)C(C)O5)C(O)C(C)O4)c(C)c(O)c3c(O)c2C(=O)C1OC1CC(OC2CC(OC3CC(O)C(OC)C(C)O3)C(O)C(C)O2)C(O)C(C)O1 (stereo not drawn)	27.9 µM
CC(=O)c1sc2nc(-c3ccco3)ccc2c1N	4.64 µM
CCOc1cccc(OCC)c2c(C)[n+](CC3CCCO3)c(C)c1-2 (stereo not drawn)	4.16 µM
Cc1cccc(N2C(=O)NC(=O)/C(=C/c3cc4c(cc3[N+](=O)[O-])OCO4)C2=O)c1	0.906 µM
CN(C)c1ccc2cc(S(=O)(=O)O)cc(O)c2c1	90 µM
CC1CCC/C(=C\Nc2ccc(C(=O)O)c(O)c2)C1=O (stereo not drawn)	5.37 µM
O=C1NC(=Nc2ccc(O)cc2)S/C1=C\C=C\c1ccco1	18.3 µM
O=C(COC(=O)c1ccc(NS(=O)(=O)c2cccs2)cc1)NCc1ccco1	16.4 µM
Fc1ccccc1/C=C1\CCCC2=C1Nc1ncnn1C2c1ccccc1F (stereo not drawn)	23.7 µM
